Measured values drawn from ChEMBL document CHEMBL1649546 for this set.

Tested on: Escherichia coli
Assay: Ratio of Kcat to Km for Escherichia coli MC4100 Beta-Lactamase CMY-30 harboring Val211?Gly211 mutation
Experimental endpoint: kcat/Km
Don't forget the unit after the number, please.

CC(C)(O/N=C(\C(=O)N[C@@H]1C(=O)N2C(C(=O)[O-])=C(C[n+]3ccccc3)CS[C@H]12)c1csc(N)n1)C(=O)O : 2.9e+06 M⁻¹ s⁻¹
CC1(C)S[C@@H]2[C@H](NC(=O)Cc3ccccc3)C(=O)N2[C@H]1C(=O)O : 3.8e+07 M⁻¹ s⁻¹
CC(=O)OCC1=C(C(=O)O)N2C(=O)[C@@H](NC(=O)Cc3cccs3)[C@H]2SC1 : 1e+07 M⁻¹ s⁻¹
CO/N=C(\C(=O)N[C@@H]1C(=O)N2C(C(=O)O)=C(COC(C)=O)CS[C@H]12)c1csc(N)n1 : 5.7e+06 M⁻¹ s⁻¹

What value of measured kcat/Km is listed for CO[C@@]1(NC(=O)Cc2cccs2)C(=O)N2C(C(=O)O)=C(COC(N)=O)CS[C@@H]21 ?
1.6e+06 M⁻¹ s⁻¹

====

System: Escherichia coli
Assay: Ratio of Kcat to Km for Escherichia coli MC4100 Beta-Lactamase CMY-2
Experimental endpoint: kcat/Km (M⁻¹ s⁻¹)
Please state the figure in M⁻¹ s⁻¹; there is no need to write the unit.

CC(=O)OCC1=C(C(=O)O)N2C(=O)[C@@H](NC(=O)Cc3cccs3)[C@H]2SC1 : 1.6e+07
CC(C)(O/N=C(\C(=O)N[C@@H]1C(=O)N2C(C(=O)[O-])=C(C[n+]3ccccc3)CS[C@H]12)c1csc(N)n1)C(=O)O : 500000
CC1(C)S[C@@H]2[C@H](NC(=O)Cc3ccccc3)C(=O)N2[C@H]1C(=O)O : 4e+07

Shift focus to the following entry.
What value of measured kcat/Km is listed for CO[C@@]1(NC(=O)Cc2cccs2)C(=O)N2C(C(=O)O)=C(COC(N)=O)CS[C@@H]21 ?
2.3e+06

====

Test system: Escherichia coli
Assay: Activity of Escherichia coli MC4100 Beta-Lactamase CMY-2
Reported kcat values for the following compounds.
Please state the figure in s⁻¹; there is no need to write the unit.

CC(C)(O/N=C(\C(=O)N[C@@H]1C(=O)N2C(C(=O)[O-])=C(C[n+]3ccccc3)CS[C@H]12)c1csc(N)n1)C(=O)O : 0.01
CC1(C)S[C@@H]2[C@H](NC(=O)Cc3ccccc3)C(=O)N2[C@H]1C(=O)O : 24
CC(=O)OCC1=C(C(=O)O)N2C(=O)[C@@H](NC(=O)Cc3cccs3)[C@H]2SC1 : 267

What value of measured kcat is listed for CO[C@@]1(NC(=O)Cc2cccs2)C(=O)N2C(C(=O)O)=C(COC(N)=O)CS[C@@H]21 ?
0.35

====

Tested on: Escherichia coli
Assay: Activity of Escherichia coli MC4100 Beta-Lactamase CMY-30 harboring Val211?Gly211 mutation
Reported log10(kcat) values for the following compounds.
Recall that a logarithmic scale is used here: each number is log10 of kcat in s⁻¹.

# count of solved cases: 4
CC1(C)S[C@@H]2[C@H](NC(=O)Cc3ccccc3)C(=O)N2[C@H]1C(=O)O : 1.36
CO[C@@]1(NC(=O)Cc2cccs2)C(=O)N2C(C(=O)O)=C(COC(N)=O)CS[C@@H]21 : -0.55
CC(=O)OCC1=C(C(=O)O)N2C(=O)[C@@H](NC(=O)Cc3cccs3)[C@H]2SC1 : 2.41
CO/N=C(\C(=O)N[C@@H]1C(=O)N2C(C(=O)O)=C(COC(C)=O)CS[C@H]12)c1csc(N)n1 : 0.23

Shift focus to the following entry.
Request body: readout log10(kcat), system Escherichia coli, query CC(C)(O/N=C(\C(=O)N[C@@H]1C(=O)N2C(C(=O)[O-])=C(C[n+]3ccccc3)CS[C@H]12)c1csc(N)n1)C(=O)O . Return the value.
-0.40
